Condition notes: acidic group
Observation type: pKa

Use the examples below as a reference point.
c1cnc2nc[nH]c2c1    11.1
C[NH+](C)CCCCCCCCCCNC(=O)/C=N/O    9.02
CCCCC(CC)C(=O)O[C@H]1O[C@@H](C(=O)O)[C@H](O)[C@@H](O)[C@@H]1O (stereo partly specified)    3.08
[NH3+]CC(=O)N[C@@H](Cc1c[nH]c[nH+]1)C(=O)O    2.61
O=C(O)[C@H]1C[C@@H]1c1cccc(Cl)c1    4.51

Need pKa, item `C[NH+](C)CCc1ccccc1O`
8.75

====

Condition notes: acidic group
Observation type: pKa
Give the value as a plain number.

Use the examples below as a reference point.
Cc1cc(C)nc([N-]S(=O)(=O)c2ccc(O)cc2)n1    9.16
O=C(O)c1cccc(=O)cc1    3.2
CCCP(=O)(CCC)CCC    12.2

Need pKa, item `Cc1csc(S(N)(=O)=O)n1`
8.35

Need pKa, item `CC(C)(C)P(=O)(O)C(C)(C)C`
4.24

Need pKa, item `Oc1ccc2c(cnc3ccccc32)c1`
8.68

Need pKa, item CCOC(=O)C1CCCC1=O (stereo unspecified)
10.7

Need pKa, item `NC(=S)Nc1cccc([N+](=O)[O-])c1`
11.1

Need pKa, item CC(C(N)=O)S(N)(=O)=O (stereo unspecified)
9.86

Need pKa, item `Cc1ccc2[nH]nnc2c1`
8.9

Need pKa, item `NC(=O)Cc1ccc(C(=O)O)cc1`
4.06

Need pKa, item `Cc1ccc[n+](O)c1`
1.08

Need pKa, item `N#CC[N+](=O)[O-]`
4.86

Need pKa, item `O=C(O)/C=C/CCl`
4.14

Need pKa, item `O=C(NBr)c1ccccc1`
7.3

Need pKa, item `C[n+]1nc(O)ccc1[O-]`
5.65

Need pKa, item `CC(C)CCC[NH+](C)CCCNC(=O)/C=N/O`
8.72

Need pKa, item `O=C(O)[C@@H]1CCC[NH2+]1`
1.94

Need pKa, item `CCOC(=O)[C@H]1CC(=O)N[C@@H]1C(=O)O`
3.5

Need pKa, item `CC(=O)NCc1cc(C)cc(CNC(C)=O)c1O`
9

Need pKa, item `O=C(CC(=O)c1ccccc1)Nc1ccccc1`
9.54

Need pKa, item `C[Si](C)(C)C#CC(=O)O`
2.21

All values here come from the pKa sets of Baltruschat and Czodrowski (2020).
